Please provide measured z-score for the entries that follow.
ASSAY_PROTOCOL: basal 3T3-L1 adipocyte mitochondrial potential changes, profiling panel, cell-based, JC-1 fluorescence, 3T3-L1 adipocytes, 24 h, 100 nL compound (AID 1168); further: test concentration not given here
MEASUREMENT_CONDITIONS: JC-1 mitochondrial fluorescence, higher = more signal, called active from +8 up or from −8 down
Numbers only.

Input: State its z-score for this molecule: "CCOC(=O)C1=C[C@@H](C(C)(C)C)N(S(=O)(=O)c2ccc(C)cc2)[C@H]1c1ccc(F)cc1"
Output: -0.43

Input: State its z-score for this molecule: "COC(=O)[C@@]1(CCC(=O)OC(C)(C)C)N=C(c2ccc(OCCCO)cc2)O[C@H]1c1ccccc1N=[N+]=[N-]"
Output: 0.581

Input: State its z-score for this molecule: C[C@H]1C2[C@H](Cc3ccccc3)NC(=O)[C@]23C(=O)N[C@H](Cc2ccccc2)C(=O)N2CCC[C@H]2C(=O)NC/C=C\C/C=C/C3[C@@H]2O[C@]12C (some centres not stated)
Output: 0.736

Please supply z-score for each of the following items, keeping them in order.
1. NC(=O)NCC#Cc1ccc2c(c1)[C@]1(C(=O)N2)[C@H](C(N)=O)[C@H]2C(=O)O[C@H](c3ccccc3)[C@H](c3ccccc3)N2[C@@H]1c1ccc(O)cc1
2. COc1cc(NN2C(C(O)c3ccco3)C=CC3C(=O)N(c4ccccc4)C(=O)C32)cc(OC)c1OC (configuration not stated)
3. COc1ccc(/C=C/C=O)cc1

Output:
-0.344
-0.967
0.754

Input: State its z-score for this molecule: "COc1ccc([Si](C)(C)[C@@H]2[C@@H](CCO)O[C@]3(C(=O)N(Cc4ccc(N(C=O)c5ccccc5)cc4)c4ccccc43)[C@H]2C)cc1"
Output: 0.21

###

ASSAY_PROTOCOL: A549 lung cancer cell viability effects, profiling panel, resazurin fluorescence, 24 h, PK04 Diversity Set (AID 1171); further: test concentration not given here
MEASUREMENT_CONDITIONS: higher = more signal, called active from +8 up or from −8 down
QUANTITY: z-score
Give bare numbers.

Please supply z-score for each of the following items, keeping them in order.
1. COC(=O)[C@@]1(Cc2ccc(OC)cc2)[C@@H]2C(=CC(=O)[C@H]2CC(=O)C(=O)N2CCCC2)CN1C(=O)c1ccccc1
2. CC(=O)NCCCC[C@@H]1NC(=O)[C@@H]2C[C@H](C(=O)NCCCCCNC(=O)CS)[C@H](c3cccc(OCCO)c3)N2C1=O

Output:
[0.408, 0.131]

###

ASSAY_PROTOCOL: osmotic lysis modulators in infected erythrocytes, primary screen, PSAC antagonist project, cell-based, P. falciparum Indochina, OD700, 3 h (AID 1156)
MEASUREMENT_CONDITIONS: higher = more signal, called active from +8 up or from −8 down
QUANTITY: z-score
Answers are plain numbers.

The following compounds have reported results that may help.
Input: State its z-score for this compound: "CC(C)(C)OC(=O)CC[C@]1(C(=O)N2CCOCC2)N=C(c2ccc(OCCCO)cc2)O[C@H]1c1ccccc1N=[N+]=[N-]"
Output: 1.75

Input: State its z-score for this compound: "COC(=O)[C@@]1(Cc2ccc(OC)cc2)[C@@H]2C(=CC(=O)[C@H]2CC(=O)C(=O)N2CCCC2)CN1C(=O)c1ccccc1"
Output: 1.51

Please supply z-score for each of the following items, keeping them in order.
1. CCN(CC)c1ccc(N2CC=CC34O[C@@H]5C=CCCOC(=O)C5[C@H]3C(=O)N(CCCCCCO)[C@@H]4C2=O)cc1 (some centres not stated)
2. C=CCC(OC(C)=O)[C@@H]1[C@@H](N(Cc2ccc(-c3ccccc3)cc2)C(=O)c2cccc3ccccc23)c2cc(OCCCO)ccc2N1C(=O)c1ccc(-c2ccccc2)cc1 (some centres not stated)
3. COc1ccc([Si](C)(C)[C@@H]2[C@@H](CC(=O)N3CCC[C@H]3CO)O[C@]3(C(=O)N(c4ccccc4)c4ccccc43)[C@H]2C)cc1
4. Cc1ccc([C@@H]2C[C@@H](Sc3ccccc3)[C@H](C(=O)O)CN2S(=O)(=O)c2ccc(C)cc2)cc1
5. COC(=O)c1c(CC[C@@H](CO)NC(=O)NCCn2cc(C3(O)CCCC3)nn2)oc(C(C)=O)c1C(=O)OC
6. O=C1O[C@H](c2ccccc2)[C@H](c2ccccc2)N2[C@H]1[C@@H](C(=O)N1CCCCCCC1)[C@]1(C(=O)Nc3ccc(C#CCCO)cc31)[C@H]2c1ccccc1OCCO

Output:
0.474
-0.291
1.1
-1.16
1.29
2.13

Please supply z-score for each of the following items, keeping them in order.
1. COC(=O)[C@@]1(Cc2ccc(F)cc2)[C@H]2c3cc(C(=O)N4CCCC4)n(Cc4ccc(S(C)(=O)=O)cc4)c3C[C@H]2CN1C(=O)c1ccccc1
2. CCOC(=O)C[C@H]1[C@H](OC(=O)c2ccc(C(=O)c3ccccc3)cc2)[C@@H](NC(=O)c2ccc3ccccc3n2)c2cc(OCCCO)ccc2N1C(=O)c1ccccc1
3. CCCC=C(CCC)[C@@H](NC(=O)c1cccs1)c1ccc(C(F)(F)F)cc1
4. CC(=O)NCCCC[C@@H]1NC(=O)[C@@H]2C[C@H](C(=O)NCCCCCNC(=O)CS)[C@H](c3cccc(OCCO)c3)N2C1=O
5. C=CCC(OC(C)=O)[C@@H]1[C@@H](N(Cc2cc3ccccc3o2)C(=O)c2cccc3ccccc23)c2cc(OCCCO)ccc2N1C(=O)c1ccc(-c2ccccc2)cc1 (some centres not stated)

Output:
1: 0.775; 2: -0.883; 3: 1.36; 4: 0.344; 5: 0.358

###

TESTED_TARGET: Follistatin-related protein 3 (Homo sapiens) (UniProt O95633)
Sequence (O95633 whole entry, looked up): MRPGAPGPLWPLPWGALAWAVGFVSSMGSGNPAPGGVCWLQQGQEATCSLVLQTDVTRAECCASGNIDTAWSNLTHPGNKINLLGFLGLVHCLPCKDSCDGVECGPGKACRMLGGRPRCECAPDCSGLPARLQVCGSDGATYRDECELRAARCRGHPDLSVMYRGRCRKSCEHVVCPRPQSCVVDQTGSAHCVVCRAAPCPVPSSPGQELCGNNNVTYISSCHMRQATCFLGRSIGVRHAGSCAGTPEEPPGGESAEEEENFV
ASSAY_PROTOCOL: FSTL3 binders on small-molecule microarrays, primary screen, biochemical, small-molecule microarray, 635 nm fluorescence (AID 1105);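 further: score merges emission near 667 nm and signal to noise per printed spot across three slides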
MEASUREMENT_CONDITIONS: FSTL3 binding, higher = more signal
QUANTITY: composite z-score
One number for each entry.

Input: State its composite z-score for this compound: CC1(C)[C@@H]2CC(C(O)C3C=CC4C(=O)N(c5ccccc5)C(=O)C4N3Nc3ccc([N+](=O)[O-])cc3)=C[C@H]1C2 (some centres undefined)
Output: 1.38

Input: State its composite z-score for this compound: "COc1cc2c(cc1OC)CN(C(=O)[C@H]1[C@@H]3C(=O)O[C@@H](c4ccccc4)[C@@H](c4ccccc4)N3[C@@H](c3ccc(O)cc3)[C@]13C(=O)Nc1ccccc13)CC2"
Output: -0.276

Input: State its composite z-score for this compound: "CCCC[C@@H]1C[C@H]1[C@@H](NC(=O)c1ccco1)c1ccc(-c2ccccc2)cc1"
Output: -0.0483

Input: State its composite z-score for this compound: "COCCOC(=O)N1C(=O)[C@@]2(c3cc(C#CC4(O)CCCCCC4)ccc31)[C@H](c1ccc(OCCO)cc1)N1[C@H](c3ccccc3)[C@H](c3ccccc3)OC(=O)[C@H]1[C@@H]2C(=O)N1CCN(c2ncccn2)CC1"
Output: 1.06

Input: State its composite z-score for this compound: "COC(=O)[C@@]1(Cc2ccc(F)cc2)[C@H]2c3cc(C(=O)N(C)C)n(Cc4cc(F)c(F)c(F)c4)c3C[C@H]2CN1C(=O)c1ccccc1"
Output: 1.08

Input: State its composite z-score for this compound: "CO[C@H]1O[C@H](CO)[C@@H](OC(=O)Nc2ccccc2)[C@H](OC(=O)Nc2ccccc2)[C@@H]1OC(=O)Nc1ccccc1"
Output: 1.11

Input: State its composite z-score for this compound: C=C(C)[C@@H]1CC=C(C(O)C2C=CC3C(=O)N(C)C(=O)C3N2Nc2ccccc2)CC1 (some centres undefined)
Output: 1.42

Input: State its composite z-score for this compound: "COc1ccc(CCNC(=O)[C@@H]2c3ccccc3C(=O)N(Cc3ccccc3Cl)[C@H]2c2ccc(CO)cc2)cc1"
Output: -0.182

Please supply composite z-score for each of the following items, keeping them in order.
1. CCOC(=O)C[C@H]1[C@H](OC(=O)c2cc3ccccc3oc2=O)[C@@H](NC(=O)c2ccccc2)c2cc(OCCCO)ccc2N1C(=O)c1ccc2ccccc2n1
2. C=C[C@@H](COC(=O)OC(C)(C)C)N(Cc1ccc(OC)cc1)S(=O)(=O)c1ccc(Br)cc1
3. CCOC(=O)C1=CC[C@@H](c2ccccc2)N(S(=O)(=O)c2ccc(C)cc2)[C@H]1c1ccccc1C
4. Cc1ccc(N2C(=O)c3ccccc3[C@@H](C(=O)NC3CC3)[C@@H]2c2ccc(CO)cc2)nc1

Output:
1.11
1
1.05
-1.38

Please supply composite z-score for each of the following items, keeping them in order.
1. COCCOC(=O)N1C(=O)[C@@]2(c3cc(C#Cc4ccc(OC)cc4)ccc31)[C@H](c1ccc(O)cc1)N1[C@H](c3ccccc3)[C@H](c3ccccc3)OC(=O)[C@H]1[C@@H]2C(=O)N1CCc2cc(OC)c(OC)cc2C1
2. C[C@H]1C2[C@H](Cc3ccccc3)NC(=O)[C@]23C(=O)N[C@H](Cc2ccccc2)C(=O)N2CCC[C@H]2C(=O)NC/C=C\C/C=C/C3[C@@H]2O[C@]12C (some centres undefined)

Output:
0.914
0.801
